experiment: Acute toxicity evaluation of (I), mouse; type: in vivo; details: in vivo, ip; mouse, intraperitoneal, 2000 mg/kg, dead/treated (range %)

Entry Smiles	mortality at 168 h [%]
OC[C@H]1O[C@@H](Oc2ccc(C#CC/C=C/c3ccc(O[C@@H]4O[C@H](CO)[C@@H](O)[C@H](O)[C@H]4O)c(O)c3)cc2O)[C@H](O)[C@@H](O)[C@@H]1O	90

* * *

assay: Acute toxicity evaluation of (I), mouse; type: in vivo; details: in vivo, ip; mouse, intraperitoneal, 1000 mg/kg, dead/treated (range %)

Entry Smiles	mortality at 168 h, %
OC[C@H]1O[C@@H](Oc2ccc(C#CC/C=C/c3ccc(O[C@@H]4O[C@H](CO)[C@@H](O)[C@H](O)[C@H]4O)c(O)c3)cc2O)[C@H](O)[C@@H](O)[C@@H]1O	16.7
